Assignment: determine reported IC50 for the given molecules.
Assayed System: Lipopolysaccharide (LPS)
Test Summary: Displacement of dansyl-PMB from LPS by isothermal titration calorimetry
Answers are plain numbers, in µM.

Report IC50 for each item below.
1. CC(C)C[C@@H]1NC(=O)[C@@H](Cc2ccccc2)NC(=O)[C@H](CCN)NC(=O)[C@@H](NC(=O)[C@H](CCN)NC(=O)[C@@H](NC(=O)[C@H](CCN)NC(=O)[C@@H](CCN)NC(=O)[C@@H](N)CCN)[C@@H](C)O)CCNC(=O)[C@H]([C@@H](C)O)NC(=O)[C@H](CCN)NC(=O)[C@H](CCN)NC1=O [DESFA-[DAB-DAB-DAB1]POLYMYXIN B]
2. CCCCCCCC(=O)N[C@@H](CCN)C(=O)N[C@H](C(=O)N[C@@H](CCN)C(=O)N[C@H]1CCNC(=O)[C@H]([C@@H](C)O)NC(=O)[C@H](CCN)NC(=O)[C@H](CCN)NC(=O)[C@H](Cc2c[nH]c3ccccc23)NC(=O)[C@@H](Cc2ccccc2)NC(=O)[C@H](CCN)NC1=O)[C@@H](C)O

Found:
1: 3; 2: 5

In plain terms, CCCCCCCC(=O)N[C@@H](CCN)C(=O)N[C@H]1CCNC(=O)[C@H]([C@@H](C)O)NC(=O)[C@H](CCN)NC(=O)[C@H](CCN)NC(=O)[C@H](CC(C)C)NC(=O)[C@@H](Cc2ccccc2)NC(=O)[C@H](CCN)NC1=O has a documented IC50 of 14
